target: Phosphorylase b kinase gamma catalytic chain, liver/testis isoform (Homo sapiens, UniProt P15735, F290L); experiment: Inhibition of recombinant human PhKgamma2 F290L (1 to 301 residues) usingKKLNRTLSFAEPG as substrate incubated for 40 mins in presence of [gamma33P]ATP by radiometric scintillation counting analysis
Sequence (P15735 whole entry F290L, the tested form may be a part, canonical isoform): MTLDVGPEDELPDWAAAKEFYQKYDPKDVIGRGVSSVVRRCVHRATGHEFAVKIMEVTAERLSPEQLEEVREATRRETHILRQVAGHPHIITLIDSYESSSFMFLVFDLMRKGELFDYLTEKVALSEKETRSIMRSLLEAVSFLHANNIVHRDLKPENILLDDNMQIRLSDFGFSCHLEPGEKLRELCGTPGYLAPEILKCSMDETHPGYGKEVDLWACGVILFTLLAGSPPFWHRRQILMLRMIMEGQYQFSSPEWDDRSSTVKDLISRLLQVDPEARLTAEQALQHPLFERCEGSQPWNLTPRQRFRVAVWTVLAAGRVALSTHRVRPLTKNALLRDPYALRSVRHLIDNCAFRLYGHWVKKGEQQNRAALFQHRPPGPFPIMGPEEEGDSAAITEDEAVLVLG
pIC50: −log10 of the molar value.
measured_endpoint: pIC50

Lab note: measured pIC50 of "CN(C)c1ccc(C(=O)Nc2cccc(NC(=O)COc3ccc4c(=O)ccoc4c3)c2)cc1" was < 5.00

====

target: Fibroblast growth factor receptor 2 (Homo sapiens, UniProt P21802); assay: Inhibition of recombinant human FGFR2 (456 to 770 residues) using poly(Glu, Tyr) 4:1 as substrate after 40 mins in presence of [gamma-33ATP] by radiometric scintillation counting analysis
Sequence (P21802 whole entry, the tested form may be a part): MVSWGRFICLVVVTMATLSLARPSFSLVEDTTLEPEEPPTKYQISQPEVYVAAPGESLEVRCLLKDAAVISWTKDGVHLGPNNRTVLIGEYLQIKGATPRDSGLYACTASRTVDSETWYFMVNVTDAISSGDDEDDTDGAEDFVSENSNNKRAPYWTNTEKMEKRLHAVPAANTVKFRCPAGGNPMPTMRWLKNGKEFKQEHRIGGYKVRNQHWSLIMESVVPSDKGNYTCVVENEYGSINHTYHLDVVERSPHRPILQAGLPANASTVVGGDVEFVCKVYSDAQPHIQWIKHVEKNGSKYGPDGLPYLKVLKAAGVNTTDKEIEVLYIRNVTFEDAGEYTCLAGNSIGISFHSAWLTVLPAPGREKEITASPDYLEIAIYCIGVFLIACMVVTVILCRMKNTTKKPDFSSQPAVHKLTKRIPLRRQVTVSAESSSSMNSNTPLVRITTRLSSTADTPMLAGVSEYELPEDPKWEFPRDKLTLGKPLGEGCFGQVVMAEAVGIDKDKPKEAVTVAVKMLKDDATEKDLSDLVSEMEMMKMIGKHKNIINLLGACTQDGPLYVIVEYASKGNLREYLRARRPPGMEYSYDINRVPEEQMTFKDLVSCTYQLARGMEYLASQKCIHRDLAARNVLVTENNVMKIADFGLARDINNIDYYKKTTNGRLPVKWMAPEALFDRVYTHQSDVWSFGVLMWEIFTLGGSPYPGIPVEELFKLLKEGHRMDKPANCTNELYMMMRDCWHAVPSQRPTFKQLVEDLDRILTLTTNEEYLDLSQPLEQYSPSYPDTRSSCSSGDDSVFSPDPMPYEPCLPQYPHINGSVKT
measured_endpoint: IC50

Value sought: IC50, system Fibroblast growth factor receptor 2 (Homo sapiens, UniProt P21802), item "CN(C)c1ccc(C(=O)Nc2cccc(NC(=O)COc3ccc4c(=O)ccoc4c3)c2)cc1" . Result: > 10 µM

====

target: LIM domain kinase 2 (Homo sapiens)
Sequence (P53671 whole entry, the tested form may be a part): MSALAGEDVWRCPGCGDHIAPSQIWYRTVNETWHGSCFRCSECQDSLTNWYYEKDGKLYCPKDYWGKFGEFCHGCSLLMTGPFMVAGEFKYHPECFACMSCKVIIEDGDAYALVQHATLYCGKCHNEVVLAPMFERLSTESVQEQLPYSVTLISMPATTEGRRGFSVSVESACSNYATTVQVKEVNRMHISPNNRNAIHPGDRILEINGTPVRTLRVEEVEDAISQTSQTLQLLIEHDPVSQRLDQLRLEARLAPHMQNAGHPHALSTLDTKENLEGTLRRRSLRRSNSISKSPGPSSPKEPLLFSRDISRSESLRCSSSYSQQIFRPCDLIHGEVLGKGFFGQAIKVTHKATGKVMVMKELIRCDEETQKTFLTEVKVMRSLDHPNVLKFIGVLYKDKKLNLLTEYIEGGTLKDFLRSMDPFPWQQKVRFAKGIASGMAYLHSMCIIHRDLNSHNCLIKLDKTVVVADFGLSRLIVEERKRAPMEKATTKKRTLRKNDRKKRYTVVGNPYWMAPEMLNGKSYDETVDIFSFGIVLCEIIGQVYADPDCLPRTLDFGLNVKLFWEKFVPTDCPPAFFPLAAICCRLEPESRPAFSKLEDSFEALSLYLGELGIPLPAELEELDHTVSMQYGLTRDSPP
measured_endpoint: IC50 (nM)
Answer in nM, number only, no unit symbol.

Lab note: measured IC50 of "CN(C)c1ccc(C(=O)Nc2cccc(NC(=O)COc3ccc4c(=O)ccoc4c3)c2)cc1" was 46

====

target: Mitogen-activated protein kinase kinase kinase 2 (Homo sapiens, UniProt Q9Y2U5); test: Inhibition of recombinant full length human MEKK2 using myelin basic protein as substrate incubated for 40 mins in presence of [gamma-33ATP by radiometric scintillation counting analysis
Sequence (Q9Y2U5 whole entry): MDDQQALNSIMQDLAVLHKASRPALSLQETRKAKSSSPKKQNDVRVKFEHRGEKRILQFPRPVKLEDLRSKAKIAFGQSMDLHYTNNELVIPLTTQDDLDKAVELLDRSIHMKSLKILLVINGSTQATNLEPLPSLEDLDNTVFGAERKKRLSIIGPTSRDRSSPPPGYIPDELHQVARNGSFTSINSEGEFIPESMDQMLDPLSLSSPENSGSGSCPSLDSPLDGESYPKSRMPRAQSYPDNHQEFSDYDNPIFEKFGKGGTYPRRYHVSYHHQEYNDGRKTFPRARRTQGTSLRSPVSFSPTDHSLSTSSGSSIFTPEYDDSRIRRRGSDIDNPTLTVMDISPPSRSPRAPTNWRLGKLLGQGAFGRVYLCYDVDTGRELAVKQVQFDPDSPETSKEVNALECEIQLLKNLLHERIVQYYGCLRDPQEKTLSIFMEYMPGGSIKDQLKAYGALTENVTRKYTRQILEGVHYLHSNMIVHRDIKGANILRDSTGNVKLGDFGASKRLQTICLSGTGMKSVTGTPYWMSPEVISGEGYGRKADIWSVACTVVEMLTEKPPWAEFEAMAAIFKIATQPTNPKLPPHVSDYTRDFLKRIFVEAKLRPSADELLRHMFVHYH
measured_endpoint: IC50

Lab note: measured IC50 of "CN(C)c1ccc(C(=O)Nc2cccc(NC(=O)COc3ccc4c(=O)ccoc4c3)c2)cc1" was > 10 µM

====

Target: Mitogen-activated protein kinase kinase kinase kinase 3 (Homo sapiens)
Sequence (Q8IVH8 whole entry): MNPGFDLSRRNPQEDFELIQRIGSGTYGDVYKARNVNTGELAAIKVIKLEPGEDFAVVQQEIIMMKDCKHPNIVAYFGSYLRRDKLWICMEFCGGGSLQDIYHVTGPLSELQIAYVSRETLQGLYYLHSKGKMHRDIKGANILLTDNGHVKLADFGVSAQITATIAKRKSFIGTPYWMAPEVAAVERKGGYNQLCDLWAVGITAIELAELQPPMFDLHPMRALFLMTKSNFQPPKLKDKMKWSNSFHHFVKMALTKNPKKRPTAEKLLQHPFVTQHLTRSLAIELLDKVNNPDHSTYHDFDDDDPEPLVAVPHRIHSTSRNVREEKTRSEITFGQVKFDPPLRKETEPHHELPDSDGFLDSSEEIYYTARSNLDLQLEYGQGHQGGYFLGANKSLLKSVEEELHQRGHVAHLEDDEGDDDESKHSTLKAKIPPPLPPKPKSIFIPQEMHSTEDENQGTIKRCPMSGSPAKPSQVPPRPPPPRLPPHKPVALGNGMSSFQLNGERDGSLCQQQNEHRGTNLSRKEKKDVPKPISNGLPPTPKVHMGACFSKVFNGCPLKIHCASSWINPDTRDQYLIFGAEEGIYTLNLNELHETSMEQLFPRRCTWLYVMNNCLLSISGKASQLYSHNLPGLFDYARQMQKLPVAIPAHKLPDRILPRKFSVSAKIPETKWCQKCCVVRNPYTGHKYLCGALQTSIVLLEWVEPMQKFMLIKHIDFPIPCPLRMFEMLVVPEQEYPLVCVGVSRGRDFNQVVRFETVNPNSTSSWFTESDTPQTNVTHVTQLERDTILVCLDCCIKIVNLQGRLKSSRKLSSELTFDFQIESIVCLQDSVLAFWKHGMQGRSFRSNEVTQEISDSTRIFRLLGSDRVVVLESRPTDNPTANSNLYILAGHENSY
Experiment: Inhibition of recombinant human MAP4K3 (1 to 291 residues) using RLGRDKYKTLRQI as substrate incubated for 40 mins in presence of [gamma-33ATP by radiometric scintillation counting analysis
measured_endpoint: IC50

Lab note: measured IC50 of "CN(C)c1ccc(C(=O)Nc2cccc(NC(=O)COc3ccc4c(=O)ccoc4c3)c2)cc1" was > 10 µM

Source: ChEMBL document CHEMBL4376834
